- measured.target: recombinant homotrimeric HA A/Anhui/1/05 H5N1 (Influenza A virus A/Anhui/1/2005(H5N1))
- test.name: protein microarray, purified IgG, trimeric HA
- run.parameters: remark: other sources report otherwise
parameter: Trimeric HA Binding: RLU (RLU)

binder	parameter	scale.unit	value.reported
TCN-553 (5261_C18) (antibody, V domains shown) VH: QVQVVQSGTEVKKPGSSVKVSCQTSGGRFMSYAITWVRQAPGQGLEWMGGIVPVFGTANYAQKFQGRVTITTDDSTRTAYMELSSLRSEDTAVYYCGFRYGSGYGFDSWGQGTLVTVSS VL: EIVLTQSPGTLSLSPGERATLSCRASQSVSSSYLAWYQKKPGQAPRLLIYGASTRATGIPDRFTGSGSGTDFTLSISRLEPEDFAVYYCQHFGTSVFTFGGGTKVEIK	Trimeric HA Binding: RLU	RLU	9030
TCN-552 (5249_I23) (antibody, V domains shown) VH: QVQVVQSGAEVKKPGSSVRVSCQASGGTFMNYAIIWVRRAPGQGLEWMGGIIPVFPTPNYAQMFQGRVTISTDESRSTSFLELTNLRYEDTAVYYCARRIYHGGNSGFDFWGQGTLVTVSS VL: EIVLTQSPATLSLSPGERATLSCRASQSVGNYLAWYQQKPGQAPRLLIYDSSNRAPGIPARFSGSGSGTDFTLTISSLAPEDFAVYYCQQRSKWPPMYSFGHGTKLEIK	Trimeric HA Binding: RLU	RLU	4520
TCN-536 (5095_N01) (antibody, V domains shown) VH: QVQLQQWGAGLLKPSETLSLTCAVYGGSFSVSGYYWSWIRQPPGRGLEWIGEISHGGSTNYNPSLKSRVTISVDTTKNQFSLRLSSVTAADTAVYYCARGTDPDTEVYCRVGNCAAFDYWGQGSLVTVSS VL: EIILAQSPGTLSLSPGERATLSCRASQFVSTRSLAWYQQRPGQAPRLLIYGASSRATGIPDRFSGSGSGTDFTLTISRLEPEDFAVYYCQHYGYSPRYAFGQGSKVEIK	Trimeric HA Binding: RLU	RLU	8860
TCN-528 (5087_P17) (antibody, V domains shown) VH: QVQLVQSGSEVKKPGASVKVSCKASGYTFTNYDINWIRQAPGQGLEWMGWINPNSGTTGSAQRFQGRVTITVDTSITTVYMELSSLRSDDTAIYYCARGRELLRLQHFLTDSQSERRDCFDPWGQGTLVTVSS VL: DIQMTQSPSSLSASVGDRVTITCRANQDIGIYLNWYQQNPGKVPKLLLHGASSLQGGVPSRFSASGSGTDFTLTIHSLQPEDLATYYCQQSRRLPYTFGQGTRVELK	Trimeric HA Binding: RLU	RLU	28800
TCN-523 (5248_A17) (antibody, V domains shown) VH: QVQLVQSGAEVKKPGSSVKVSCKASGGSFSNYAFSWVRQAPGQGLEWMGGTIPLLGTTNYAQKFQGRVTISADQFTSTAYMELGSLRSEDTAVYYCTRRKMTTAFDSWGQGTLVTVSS VL: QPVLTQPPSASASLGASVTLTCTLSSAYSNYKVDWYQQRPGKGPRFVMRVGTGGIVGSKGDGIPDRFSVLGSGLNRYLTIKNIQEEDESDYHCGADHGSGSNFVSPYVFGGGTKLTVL	Trimeric HA Binding: RLU	RLU	7240
